TARGET DESC: Zcchc11 enzyme (Homo sapiens)
Construct: made in house; host or cells: HEK293 cells (Zcchc11); E. coli Rosetta II (LIN28A)
TEST SUMMARY: TUTase assay (Zcchc11 assay, Lin28a-dependent polyuridylation of pre-let-7)
Format: biochemical
COND: Lin28a-dependent Zcchc11 (Z11) TUTase activity; read-out: Potency Lin28a-dep Z11 IC50
pIC50: −log10 of the molar value.
Measured pIC50 values are reported for all entries that follow.

# COMPOUND, pIC50
data = [
    ("CN(C)CCn1cc(-n2cc(C(=O)O)c(=O)c3cc(C#N)c(N4CCC[C@@H]4COc4ncccc4Cl)cc32)cn1", "≥ 6.00"),
    ("Cn1cc(-n2cc(C(=O)O)c(=O)c3cc(Cl)c(N4CCC[C@@H]4COc4ncccc4Cl)nc32)cn1 (racemic)", "≥ 6.00"),
    ("CN(C)C1CN(c2ncc(-n3cc(C(=O)O)c(=O)c4cc(Cl)c(N5CC(c6cccnc6)C[C@@H]5COc5ncccc5Cl)cc43)cn2)C1 (stereo partly drawn)", "≥ 6.00"),
]

* * *

TARGET DESC: Zcchc11 enzyme (Homo sapiens, UniProt Q5TAX3)
Construct: made in house; host or cells: HEK293 cells (Zcchc11); E. coli Rosetta II (LIN28A)
Sequence (Q5TAX3 212-1420): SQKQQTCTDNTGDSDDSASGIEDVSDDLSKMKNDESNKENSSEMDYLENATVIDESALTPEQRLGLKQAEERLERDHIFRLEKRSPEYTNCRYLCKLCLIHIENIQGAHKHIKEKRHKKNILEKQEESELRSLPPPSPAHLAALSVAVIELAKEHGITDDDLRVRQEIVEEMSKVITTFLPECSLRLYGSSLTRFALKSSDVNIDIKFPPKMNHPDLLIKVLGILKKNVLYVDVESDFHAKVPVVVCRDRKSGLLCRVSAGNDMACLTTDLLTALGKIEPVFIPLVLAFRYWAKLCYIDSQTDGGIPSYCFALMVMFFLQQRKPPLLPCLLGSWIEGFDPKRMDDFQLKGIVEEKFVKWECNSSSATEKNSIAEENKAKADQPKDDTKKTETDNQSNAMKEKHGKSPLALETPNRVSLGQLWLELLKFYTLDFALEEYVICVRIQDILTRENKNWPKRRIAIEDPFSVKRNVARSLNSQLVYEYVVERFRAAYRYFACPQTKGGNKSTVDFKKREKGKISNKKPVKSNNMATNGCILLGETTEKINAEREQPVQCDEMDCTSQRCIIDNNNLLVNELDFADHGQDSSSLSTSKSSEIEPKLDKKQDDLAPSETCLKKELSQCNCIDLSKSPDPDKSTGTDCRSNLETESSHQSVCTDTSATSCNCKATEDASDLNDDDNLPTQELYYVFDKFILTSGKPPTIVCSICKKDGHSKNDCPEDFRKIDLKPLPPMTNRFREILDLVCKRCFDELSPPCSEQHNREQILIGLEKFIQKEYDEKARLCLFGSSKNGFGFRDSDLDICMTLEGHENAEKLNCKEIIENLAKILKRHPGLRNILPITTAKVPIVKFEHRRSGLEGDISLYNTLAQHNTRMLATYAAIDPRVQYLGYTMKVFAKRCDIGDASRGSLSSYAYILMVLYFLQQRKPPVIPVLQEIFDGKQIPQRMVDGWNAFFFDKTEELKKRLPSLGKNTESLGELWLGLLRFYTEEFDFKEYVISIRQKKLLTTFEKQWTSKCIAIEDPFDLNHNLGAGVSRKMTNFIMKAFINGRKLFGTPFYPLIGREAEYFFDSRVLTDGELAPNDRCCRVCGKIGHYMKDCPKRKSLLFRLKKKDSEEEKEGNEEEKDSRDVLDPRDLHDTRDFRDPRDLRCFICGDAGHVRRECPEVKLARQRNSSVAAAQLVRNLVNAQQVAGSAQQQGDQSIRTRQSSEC
TEST SUMMARY: TUTase assay (Zcchc11 assay, Lin28a-dependent polyuridylation of pre-let-7)
Type: biochemical
COND: Lin28a-dependent Zcchc11 (Z11) TUTase assay; read-out: Potency Lin28a-dep Z11 IC50
Measured IC50 values are reported for all entries that follow.
PARAMETER MEASURED: IC50

# COMPOUND, PARAMETER MEASURED, RESULT
data = [
    ("Cc1cccnc1OC[C@H]1CCCN1c1cc2c(cc1Cl)c(=O)c(C(=O)O)cn2-c1ccc2[nH]cnc2c1", "IC50", "≤ 1000 nM"),
    ("N#Cc1cc2c(=O)c(C(=O)O)cn(C3CCn4ccnc4C3)c2cc1N1CCC[C@@H]1COc1ncccc1Cl (stereo partly shown)", "IC50", "≤ 1000 nM"),
    ("CC(C)(C)OC(=O)NC1CC(n2cc(C(=O)O)c(=O)c3cc(Cl)c(N4CCC[C@@H]4COc4ncccc4Cl)cc32)C1 (stereo partly shown)", "IC50", "≤ 1000 nM"),
    ("O=C(O)c1cn(-c2ccc(Cl)cc2)c2cc(N3CCC[C@@H]3COc3ccccn3)c(F)cc2c1=O", "IC50", "≤ 1000 nM"),
]

* * *

Measured pIC50 values are reported for all entries that follow.
TARGET DESC: Zcchc11 enzyme (Homo sapiens)
Construct: made in house; host or cells: HEK293 cells (Zcchc11); E. coli Rosetta II (LIN28A)
TEST SUMMARY: TUTase assay (Zcchc11 assay, Lin28a-dependent polyuridylation of pre-let-7)
Format: biochemical
COND: Lin28a-dependent Zcchc11 (Z11) TUTase assay; read-out: Potency Lin28a-dep Z11 IC50
pIC50: −log10 of the molar value.

# COMPOUND, pIC50
data = [
    ("Cc1cc(C)cc(-n2cc(C(=O)O)c(=O)c3cc(F)c(N4CCC[C@@H]4COc4ccccn4)cc32)c1", "5.00 to 6.00"),
    ("N#Cc1cc2c(=O)c(C(=O)O)cn(-c3ccc(N4CCC4)nc3)c2cc1N1CCC[C@@H]1COc1ncccc1Cl", "≥ 6.00"),
    ("O=C(O)c1cn(-c2cnc(OCc3ccccc3)cn2)c2cc(N3CCC[C@@H]3COc3ncccc3Cl)c(Cl)cc2c1=O", "5.00 to 6.00"),
    ("O=C(O)c1cn(-c2ccncc2)c2cc(N3CCC[C@@H]3COc3ncccc3Cl)c(Cl)cc2c1=O", "≥ 6.00"),
    ("COCCN(C)c1ccc(-n2cc(C(=O)O)c(=O)c3cc(Cl)c(N4CCC[C@@H]4COc4ncccc4Cl)cc32)cn1", "≥ 6.00"),
    ("CN(C)c1cnc(-n2cc(C(=O)O)c(=O)c3cc(Cl)c(N4CCC[C@@H]4COc4ncccc4Cl)cc32)cn1", "≥ 6.00"),
    ("COc1ccnc(OC[C@H]2C[C@H]3C[C@H]3N2c2cc3c(cc2F)c(=O)c(C(=O)O)cn3-c2ccc(N3CC(N(C)C)C3)nc2)c1F", "≥ 6.00"),
    ("CN(C)C1CN(c2ccc(-n3cc(C(=O)O)c(=O)c4cc(F)c(N5CCC[C@@H]5COc5cc(OCc6ccccc6)ccn5)c(F)c43)cn2)C1", "≥ 6.00"),
    ("CN(C)C1CN(c2ccc(-n3cc(C(=O)O)c(=O)c4cc(Cl)c(N5CCC[C@@H]5CS(=O)(=O)c5ncccc5Cl)cc43)cn2)C1", "≥ 6.00"),
    ("O=C(O)c1cn(C2CCNC2)c2cc(N3CCC[C@@H]3COc3ncccc3Cl)c(Cl)cc2c1=O (stereo partly shown)", "5.00 to 6.00"),
    ("CN(C)C1CN(c2ccc(-n3cc(C(=O)O)c(=O)c4cc(Cl)c(N5CCC[C@H]5COc5ncccc5Cl)cc43)cn2)C1 [Example 666]", "≥ 6.00"),
    ("COCCNc1ccc(-n2cc(C(=O)O)c(=O)c3cc(I)c(N4CCC[C@@H]4COc4ncccc4Cl)cc32)cn1", "≥ 6.00"),
    ("COc1ccc(Cl)c(OC[C@H]2C[C@H]3C[C@H]3N2c2cc3c(cc2Cl)c(=O)c(C(=O)O)cn3-c2ccc(N3CC(N(C)C)C3)nc2)n1", "≥ 6.00"),
]
